molecular target: T1, HLA-DR molecule encoded by the allele DRB1*1301 (human); test: competition ELISA, nonbiotinylated peptide vs its biotinylated form
T1 chain 1: not shown
T1 chain 2: not shown
No end group written: not given here.
Readout label: pIC50
Answers are plain numbers, as −log10 of the molar value.

In plain terms, TERVRLVTRHIYNREE (not fully specified) [B1 21-36 peptide, nonbiotinylated] has a documented pIC50 of 6.48
